Test: Tissue distribution in male rats after single oral dose of 75 mg/kg
Assay type: in vivo, male Sprague Dawley rats
Conditions: male, Sprague Dawley, rat, pancreas, po, 75 mg/kg, male rats; 75 mg/kg oral; 4 hr; read-out: Tissue/Plasma Ratio, Pancreas
Parameter Measured: Kp at 4 hr
Reply: number alone, nothing else.

Can you look up the measured Kp at 4 hr of Cc1ccc(NC(=O)C2(c3ccc4c(c3)OC(F)(F)O4)CC2)nc1-c1cccc(C(=O)O)c1 for me?
0.12

---

Assay: Oral pharmacokinetics of Compound 1 in fed or fasted male dogs at 10 mg/kg
Format: in vivo, male beagle dogs
Conditions: male, beagle, dog, plasma, po, 10 mg/kg, male dogs; 10 mg/kg; Fasted; read-out: t1/2 (converted)
Protocol: Non-validated research grade assays were used for these analyses. All pharmacokinetic studies were conducted using fed animals unless otherwise specified. The oral pharmacokinetics of Compound 1 were determined under fed and fasted conditions in male beagle dogs following a single 10 mg/kg administration (Table 6). […] The tmax occurred sooner after administration in the fasted state (1.5 hours) than in the fed state (2.7 hours). […]
Parameter Measured: half-life

Can you look up the measured half-life of Cc1ccc(NC(=O)C2(c3ccc4c(c3)OC(F)(F)O4)CC2)nc1-c1cccc(C(=O)O)c1 for me?
6.3 h

---

Assay: Tissue distribution in male rats after single oral dose of 75 mg/kg
Type: in vivo, male Sprague Dawley rats
Details: male, Sprague Dawley, rat, brain, po, 75 mg/kg, male rats; 75 mg/kg oral; 4 hr; read-out: Tissue/Plasma Ratio, Brain
Method: Following a single oral administration of unlabelled Compound 1 to rats, the highest distribution was to the liver followed by lung, pancreas and brain with tissue-to-plasma ratios of 0.73, 0.19, 0.13 and 0.02, respectively, at one hour following oral administration of 75 mg/kg. […] Although the distribution to the lung is low relative to plasma, the concentrations measured in lung at low and moderate doses are predicted to be efficacious.
Parameter Measured: Kp at 4 hr
Reply: number alone, nothing else.

Can you look up the measured Kp at 4 hr of Cc1ccc(NC(=O)C2(c3ccc4c(c3)OC(F)(F)O4)CC2)nc1-c1cccc(C(=O)O)c1 [Compound 1] for me?
0.02

---

Test: Tissue distribution in male rats after single oral dose of 75 mg/kg
Assay type: in vivo, male Sprague Dawley rats
Details: Sprague Dawley, rat; male rats; 75 mg/kg oral; Lung
Parameter Measured: half-life (h)
Expressed in h, but write only the number.

Can you look up the measured half-life of Cc1ccc(NC(=O)C2(c3ccc4c(c3)OC(F)(F)O4)CC2)nc1-c1cccc(C(=O)O)c1 for me?
7.79

---

Experiment: Toxicokinetics in acute oral toxicity study in mice
Format: in vivo
Settings: CD-1, mouse, plasma, 2000 mg/kg, Female, read-out: tmax
Parameter Measured: Tmax (h)
Expressed in h, but write only the number.

Can you look up the measured Tmax of Cc1ccc(NC(=O)C2(c3ccc4c(c3)OC(F)(F)O4)CC2)nc1-c1cccc(C(=O)O)c1 for me?
1

---

Assay: Toxicokinetics in acute oral toxicity study in mice
Format: in vivo
Conditions: CD-1, mouse, plasma, 2000 mg/kg, Male, read-out: tmax
Parameter Measured: Tmax
Please answer using the number first and the unit second.

Can you look up the measured Tmax of Cc1ccc(NC(=O)C2(c3ccc4c(c3)OC(F)(F)O4)CC2)nc1-c1cccc(C(=O)O)c1 for me?
1 h
